# Target desc: T1, Macaca fascicularis (mf) RET.mmh (Macaca fascicularis)
# T1 construct: also called monkey RET
# T1 chain: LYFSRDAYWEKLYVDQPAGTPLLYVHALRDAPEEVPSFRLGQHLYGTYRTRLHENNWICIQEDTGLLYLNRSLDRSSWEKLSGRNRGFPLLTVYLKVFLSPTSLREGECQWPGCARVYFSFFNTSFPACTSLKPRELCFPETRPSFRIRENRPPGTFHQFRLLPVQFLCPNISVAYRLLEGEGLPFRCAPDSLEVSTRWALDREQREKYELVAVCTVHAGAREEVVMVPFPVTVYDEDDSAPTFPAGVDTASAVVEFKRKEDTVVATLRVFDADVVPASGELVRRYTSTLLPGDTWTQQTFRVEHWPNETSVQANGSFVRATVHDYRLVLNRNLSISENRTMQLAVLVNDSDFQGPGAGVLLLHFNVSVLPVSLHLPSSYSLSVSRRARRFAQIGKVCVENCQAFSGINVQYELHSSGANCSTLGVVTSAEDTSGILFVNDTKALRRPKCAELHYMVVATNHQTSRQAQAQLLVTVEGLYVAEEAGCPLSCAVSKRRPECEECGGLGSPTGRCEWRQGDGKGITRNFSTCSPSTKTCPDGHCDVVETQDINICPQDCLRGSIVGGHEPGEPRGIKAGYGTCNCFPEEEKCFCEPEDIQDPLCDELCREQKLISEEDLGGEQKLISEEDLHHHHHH
# Protocol notes: SPR Biacore T200, mAb capture, 37 C
For each entry below, report its t½ value.

t½ in this record for H4H8076P (antibody, human IgG4, V domains shown, human IgG4 Fc (H4H prefix)) VH: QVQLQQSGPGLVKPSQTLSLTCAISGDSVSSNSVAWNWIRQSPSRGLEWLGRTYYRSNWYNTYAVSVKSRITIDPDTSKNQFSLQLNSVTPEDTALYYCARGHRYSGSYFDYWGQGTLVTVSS VL: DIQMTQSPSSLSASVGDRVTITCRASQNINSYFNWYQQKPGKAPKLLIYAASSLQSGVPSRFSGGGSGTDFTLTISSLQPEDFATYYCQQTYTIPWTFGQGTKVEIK : 8 min

// field: t½; key: H4H8066P (antibody, human IgG4, V domains shown, human IgG4 Fc (H4H prefix)) VH: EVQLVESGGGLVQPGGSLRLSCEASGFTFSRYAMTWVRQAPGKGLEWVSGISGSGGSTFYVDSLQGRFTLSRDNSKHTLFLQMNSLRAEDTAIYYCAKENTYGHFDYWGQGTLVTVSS VL: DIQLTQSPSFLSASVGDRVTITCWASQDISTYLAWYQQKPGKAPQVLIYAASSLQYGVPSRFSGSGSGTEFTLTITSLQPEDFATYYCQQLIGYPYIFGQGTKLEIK ; value = 4 min

Please fill in: t½ reported for H4H8046P (antibody, human IgG4, V domains shown, human IgG4 Fc (H4H prefix)) VH: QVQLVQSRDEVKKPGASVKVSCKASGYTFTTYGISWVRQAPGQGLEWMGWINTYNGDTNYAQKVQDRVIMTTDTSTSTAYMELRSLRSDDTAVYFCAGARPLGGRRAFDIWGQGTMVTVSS VL: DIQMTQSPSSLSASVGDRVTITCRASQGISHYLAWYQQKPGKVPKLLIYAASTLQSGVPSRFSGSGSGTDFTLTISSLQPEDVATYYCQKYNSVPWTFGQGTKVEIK = 9 min
